Test target: interaction between glucokinase (GK) and glucokinase regulatory protein (GKRP) (Homo sapiens, UniProt Q14397)
Sequence (Q14397 1-625): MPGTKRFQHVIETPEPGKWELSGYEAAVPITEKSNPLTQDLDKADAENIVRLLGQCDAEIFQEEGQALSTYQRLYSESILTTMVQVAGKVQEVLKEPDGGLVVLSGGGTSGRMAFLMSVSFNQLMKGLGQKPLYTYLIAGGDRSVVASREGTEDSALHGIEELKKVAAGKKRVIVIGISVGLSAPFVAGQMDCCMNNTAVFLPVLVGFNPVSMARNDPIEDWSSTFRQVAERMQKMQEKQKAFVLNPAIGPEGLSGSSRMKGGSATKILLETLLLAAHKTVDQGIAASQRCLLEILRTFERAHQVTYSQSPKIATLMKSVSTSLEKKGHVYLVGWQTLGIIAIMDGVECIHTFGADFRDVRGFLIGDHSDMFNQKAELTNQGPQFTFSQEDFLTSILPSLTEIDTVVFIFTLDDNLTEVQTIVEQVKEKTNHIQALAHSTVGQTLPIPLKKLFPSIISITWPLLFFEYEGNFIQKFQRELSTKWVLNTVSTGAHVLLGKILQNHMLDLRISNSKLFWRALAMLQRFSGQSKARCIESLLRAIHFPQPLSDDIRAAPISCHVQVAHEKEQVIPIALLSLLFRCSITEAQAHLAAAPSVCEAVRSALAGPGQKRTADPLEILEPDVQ
Experimental details: biochemical
Assay type: binding
Test conditions: avi-tagged GKRP, GK-fluorescein, AlphaScreen beads; read-out: GK-GKRP IC50 (Binding)
log10 IC50 values for the compounds below.
Measured property: log10 IC50 (log10 of the value in nM)

>>> reported_value("C[C@H]1CN(S(=O)(=O)c2ccc(N)s2)CCN1c1ccc(C(O)(C(F)(F)F)C(F)(F)F)cc1")
2.65
>>> reported_value("CC(O)(c1ccc(N2CCN(S(=O)(=O)c3cccs3)C[C@@H]2C[S+]([O-])c2cccc(F)c2)cc1)C(F)(F)F (single isomer, unassigned) [Example 189 Peak#3]")
2.73
>>> reported_value("CC(O)(c1ccc(N2CCN(S(=O)(=O)c3cccs3)C[C@@H]2CN(CC2CCC2)S(C)(=O)=O)cc1)C(F)(F)F (mixture of isomers)")
1.38
>>> reported_value("CN(C[C@H]1CN(S(=O)(=O)c2cccs2)CCN1c1ccc(C(C)(O)C(F)(F)F)cc1)S(=O)(=O)c1cccnc1 (mixture of isomers)")
2.61
>>> reported_value("C[C@H]1CN(S(=O)(=O)c2ccc(N)s2)CCN1c1ccc(C(C)(O)C(F)(F)F)cc1 (mixture of isomers)")
2.80
>>> reported_value("COc1ccc(CC2CN(S(=O)(=O)c3cccs3)CCN2c2ccc(C(O)(C(F)(F)F)C(F)(F)F)cc2)cc1 (racemic)")
3.46

###

Test target: GKRP (Glucokinase Regulatory Protein) with human His-hepatic GK (Homo sapiens, UniProt Q14397)
Experimental details: GKRP NADPH Coupled Assay
Format: biochemical
Test conditions: GK-GKRP EC50 (NADPH-coupled), indirect measure of glucose-6-phosphate, fluorescence; 1 μM GKRP (10×), 20 nM GK (5×)
Protocol: This assay is used to directly measure the formation of ^13C-glucose-6-phosphate from ^13C-glucose by liquid chromatography-mass spectrometry (LC MS/MS). Begin by preparing the following solutions: Compound Buffer (CB): 50 mM Tris, pH 7.5/4 mM MgCl2/6% DMSO/fresh 10 mM DTT from 1M frozen stock. Enzyme Buffer (EB): 50 mM Tris, pH 7.5/4 mM MgCl2/6% DMSO/fresh 0.1% BSA/fresh 0.01% Brij-35 (10% BSA and 1% Brij-35 stock). […]
Flag rule - EC50 less than 800 nM flags Met; the remaining entries get Not met.

>>> qualitative_label("CC(O)(c1ccc(N2CCN(S(=O)(=O)c3cccs3)C[C@@H]2Cn2ccnc2)cc1)C(F)(F)F (mixture of isomers) [Example 170]")
"Met"
>>> qualitative_label("O=S(=O)(c1cccs1)N1CCN(c2ccc(C(O)(C(F)(F)F)C(F)(F)F)cc2-c2cccnc2)CC1 [Example 72]")
"Met"
>>> qualitative_label("O=S(=O)(c1ccccc1Cl)N1CCN(c2ccc(C(O)(C(F)(F)F)C(F)(F)F)cc2)CC1 [Example 10]")
"Not met"
>>> qualitative_label("CC(O)(c1ccc(N2CCN(S(=O)(=O)c3cccs3)C[C@@H]2Cc2ccccc2)cc1)C(F)(F)F (single isomer, unassigned) [Example 65 Peak #1]")
"Met"
>>> qualitative_label("C[C@H]1CN(S(=O)(=O)c2nnc(N)s2)CCN1c1ccc(C(C)(O)C(F)(F)F)cc1 (mixture of isomers) [Example 35]")
"Not met"
>>> qualitative_label("CC(O)(c1ccc(N2CCN(S(=O)(=O)c3cccs3)CC2COCc2ccccc2)cc1)C(F)(F)F (mixture of isomers) [Example 44 Step 5]")
"Met"

###

Test target: interaction between glucokinase (GK) and glucokinase regulatory protein (GKRP) (Homo sapiens, UniProt Q14397)
Sequence (Q14397 1-625): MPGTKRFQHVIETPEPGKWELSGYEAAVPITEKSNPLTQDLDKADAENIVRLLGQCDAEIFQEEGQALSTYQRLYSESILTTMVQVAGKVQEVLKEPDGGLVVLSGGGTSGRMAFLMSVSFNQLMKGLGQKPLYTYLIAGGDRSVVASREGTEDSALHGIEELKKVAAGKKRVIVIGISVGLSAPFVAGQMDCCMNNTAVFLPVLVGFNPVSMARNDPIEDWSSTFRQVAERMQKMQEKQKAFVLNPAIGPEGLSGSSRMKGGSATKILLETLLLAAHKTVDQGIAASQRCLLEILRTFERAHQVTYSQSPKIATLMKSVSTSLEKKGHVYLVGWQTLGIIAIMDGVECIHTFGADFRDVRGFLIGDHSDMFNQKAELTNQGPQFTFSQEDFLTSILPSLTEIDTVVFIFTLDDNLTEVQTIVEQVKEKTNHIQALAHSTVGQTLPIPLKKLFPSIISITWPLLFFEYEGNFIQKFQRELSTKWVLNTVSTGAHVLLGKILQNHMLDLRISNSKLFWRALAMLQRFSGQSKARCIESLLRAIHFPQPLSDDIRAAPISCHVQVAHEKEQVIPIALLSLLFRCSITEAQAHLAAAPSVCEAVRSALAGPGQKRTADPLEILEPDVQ
Experimental details: biochemical
Type: binding
Test conditions: avi-tagged GKRP, GK-fluorescein, AlphaScreen beads; read-out: GK-GKRP IC50 (Binding)
Measured property: IC50 (nM)

>>> reported_value("CC(O)(c1ccc(N2CCN(S(=O)(=O)c3cccs3)C[C@@H]2COCC2CCCO2)cc1)C(F)(F)F (mixture of isomers)")
570
>>> reported_value("Nc1ccc(S(=O)(=O)N2CCN(c3ccc(C(O)(C(F)(F)F)C(F)(F)F)cc3)CC2)s1")
302
>>> reported_value("CC(c1ccccc1)N(C[C@H]1CN(S(=O)(=O)c2cccs2)CCN1c1ccc(C(C)(O)C(F)(F)F)cc1)S(C)(=O)=O (mixture of isomers)")
671
>>> reported_value("CC(O)(c1ccc(N2CCN(S(=O)(=O)c3cccs3)C[C@@H]2CN(CC2CC2)S(C)(=O)=O)cc1)C(F)(F)F (mixture of isomers)")
26
>>> reported_value("O=S(=O)(c1cccs1)N1CCN(c2ccc(C(O)(C(F)(F)F)C(F)(F)F)cc2)C(Cc2ccccc2O)C1 (racemic)")
170
>>> reported_value("CC(O)(c1ccc(N2CCN(S(=O)(=O)c3cccs3)C[C@@H]2CN2CCS(=O)(=O)CC2C2CC2)cc1)C(F)(F)F (mixture of isomers)")
229
>>> reported_value("CC(O)(c1ccc(N2CCN(S(=O)(=O)c3cccs3)C[C@@H]2CN2C3COCC2C(O)C3)cc1)C(F)(F)F (single isomer, unassigned) [Example 78 Peak #2]")
49
>>> reported_value("CC(O)(c1ccc(N2CCN(S(=O)(=O)c3cccs3)C[C@@H]2CNS(=O)(=O)c2cccnc2)cc1)C(F)(F)F (mixture of isomers)")
103
>>> reported_value("CC(O)(c1ccc(N2CCN(S(=O)(=O)c3cccs3)C[C@@H]2CNC2COC2)cc1)C(F)(F)F (mixture of isomers)")
248
>>> reported_value("CC(O)(c1ccc(N2CCN(S(=O)(=O)c3cccs3)C[C@@H]2CNS(=O)(=O)c2ccccc2)cc1)C(F)(F)F (mixture of isomers)")
284
>>> reported_value("CC(O)(c1cnc(N2CCN(S(=O)(=O)c3ccc(N)s3)C[C@@H]2CC2CCOCC2)nc1)C(F)(F)F (mixture of isomers)")
55
>>> reported_value("CC(C)C1C(=O)NCCN1C[C@H]1CN(S(=O)(=O)c2cccs2)CCN1c1ccc(C(C)(O)C(F)(F)F)cc1 (single isomer, unassigned) [Example 181 Peak #1]")
43

###

Test target: GKRP (Glucokinase Regulatory Protein) with human His-hepatic GK (Homo sapiens)
Sequence (Q14397 1-625): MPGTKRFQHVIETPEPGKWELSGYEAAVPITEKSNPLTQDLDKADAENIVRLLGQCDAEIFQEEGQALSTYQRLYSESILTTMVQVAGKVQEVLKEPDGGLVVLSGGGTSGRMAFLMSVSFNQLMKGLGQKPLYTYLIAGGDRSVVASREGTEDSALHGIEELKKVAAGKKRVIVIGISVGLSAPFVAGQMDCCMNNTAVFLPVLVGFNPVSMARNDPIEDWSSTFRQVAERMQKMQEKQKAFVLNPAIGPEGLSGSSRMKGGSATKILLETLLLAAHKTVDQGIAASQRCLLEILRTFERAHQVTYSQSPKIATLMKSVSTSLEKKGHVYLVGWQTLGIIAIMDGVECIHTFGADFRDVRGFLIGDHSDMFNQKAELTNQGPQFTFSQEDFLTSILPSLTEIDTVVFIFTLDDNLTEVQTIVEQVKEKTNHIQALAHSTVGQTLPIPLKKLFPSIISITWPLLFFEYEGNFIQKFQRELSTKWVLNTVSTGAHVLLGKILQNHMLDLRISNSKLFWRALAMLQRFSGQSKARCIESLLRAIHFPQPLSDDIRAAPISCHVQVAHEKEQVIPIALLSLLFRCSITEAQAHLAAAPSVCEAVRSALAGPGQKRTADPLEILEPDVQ
Experimental details: biochemical
Test conditions: 13C-glucose-6-phosphate formation; 280 nM GKRP (10×), 30 nM GK (5×); read-out: GK-GKRP EC50 (LC MS/MS-2)
Measured property: EC50 (nM)

>>> reported_value("O=S(=O)(c1cccs1)N1CCN(c2ncc(C(O)(C(F)(F)F)C(F)(F)F)cn2)[C@@H](CN2C3COCC2C(O)C3)C1 (stereo partly drawn) [Example 79]")
58
>>> reported_value("C[C@H]1CN(S(=O)(=O)c2ccc(N)s2)CCN1c1ncc(C(O)(C(F)(F)F)C(F)(F)F)cn1 [Example 89]")
161
>>> reported_value("C[C@H]1COCCN1C[C@H]1CN(S(=O)(=O)c2ccc(N)nc2)CCN1c1ccc(C(C)(O)C(F)(F)F)cc1 (mixture of isomers) [Example 125]")
20
>>> reported_value("CC1(CN(C[C@H]2CN(S(=O)(=O)c3cccs3)CCN2c2ccc(C(C)(O)C(F)(F)F)cc2)S(C)(=O)=O)COC1 (mixture of isomers) [Example 216]")
194
>>> reported_value("CC(C)N(C[C@H]1CN(S(=O)(=O)c2cccs2)CCN1c1ccc(C(C)(O)C(F)(F)F)cc1)S(C)(=O)=O (mixture of isomers) [Example 195]")
57
>>> reported_value("CC(O)(c1ccc(N2CCN(S(=O)(=O)c3cccs3)CC2CN2C3COCC2C(O)C3)cc1)C(F)(F)F (single isomer, unassigned) [Example 77 Peak #3]")
58
